tested on: RSV (Group A, Long Strain); assay: Cytopathetic effect (CPE) protection antiviral assay, MTT readout; assay type: cell-based; conditions: human respiratory syncytial virus, HEp-2, 96 h, HEp-2 cells, 0.2 MOI RSV, 4 days incubation, protection from CPE (Table 1); read-out: RSV EC50
pEC50: −log10 of the molar value.
Mark Criterion met for reported pEC50 of 6 or greater; mark Criterion not met for anything smaller.

Example results:
- compound: "Cc1ccc(N/C(=N/C#N)N2CCN(c3cnc4ccccc4n3)CC2C(C)C)cc1 (stereo not drawn) [Example 1.16]"
  discrete-label: "Criterion not met"
- compound: "Cc1ccc(F)cc1N/C(=N/C#N)N1CCN(c2cnc3ccccc3n2)CC1C(C)C (stereo not drawn) [Example 1.31]"
  discrete-label: "Criterion not met"

Field: next compound
Determine whether measured pEC50 meets or exceeds 6 for Cc1ccccc1NC(=NC#N)N1CCN(c2cncc(N3CCOCC3)n2)CC1C(C)C (stereo not drawn) [Example 1.63] Criterion not met
